target entity: β-catenin (Homo sapiens, UniProt P35222)
Sequence (P35222 1-781): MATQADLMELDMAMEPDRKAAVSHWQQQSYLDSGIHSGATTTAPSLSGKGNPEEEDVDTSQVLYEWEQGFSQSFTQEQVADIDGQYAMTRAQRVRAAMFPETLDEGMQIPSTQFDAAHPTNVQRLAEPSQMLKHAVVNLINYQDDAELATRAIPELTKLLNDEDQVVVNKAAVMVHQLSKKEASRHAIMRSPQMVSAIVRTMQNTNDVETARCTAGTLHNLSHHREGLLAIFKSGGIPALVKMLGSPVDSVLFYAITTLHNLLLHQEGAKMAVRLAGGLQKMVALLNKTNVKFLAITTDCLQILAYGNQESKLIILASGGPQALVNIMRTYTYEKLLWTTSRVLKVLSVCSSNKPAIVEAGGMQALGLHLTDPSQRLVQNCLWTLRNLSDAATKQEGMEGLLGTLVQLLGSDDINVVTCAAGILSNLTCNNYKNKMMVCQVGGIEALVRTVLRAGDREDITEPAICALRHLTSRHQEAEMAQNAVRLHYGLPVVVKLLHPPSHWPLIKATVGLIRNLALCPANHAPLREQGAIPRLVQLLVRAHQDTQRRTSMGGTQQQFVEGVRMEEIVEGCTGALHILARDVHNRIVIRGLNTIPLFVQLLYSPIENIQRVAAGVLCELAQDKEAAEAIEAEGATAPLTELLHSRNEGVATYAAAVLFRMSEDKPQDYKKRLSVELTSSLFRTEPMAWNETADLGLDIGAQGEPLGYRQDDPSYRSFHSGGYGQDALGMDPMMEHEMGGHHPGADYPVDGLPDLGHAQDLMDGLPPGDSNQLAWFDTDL
measurement notes: KD50 measurement using competitive fluorescence polarization (FP) with labelled TCF4
Type: binding
condition context: fluorescence polarization, β-catenin
Where a SMILES comes first, the peptide text is derived from it.
metric: β-Cat FP Hill slope
Answer with the value's number alone.

These recorded examples may help you get a feel for the data.
>  <molecule>
CC[C@H](C)[C@@H]1NC(=O)[C@H](CC(C)C)NC(=O)[C@H](Cc2ccccc2)NC(=O)[C@H](Cc2c[nH]c3ccccc23)NC(=O)[C@@H](N)CCCCNC(=O)CNC(=O)CC[C@@H](C(=O)NCC(=O)O)NC(=O)[C@H](Cc2c[nH]c3ccccc23)NC(=O)[C@H](Cc2ccccc2)NC(=O)[C@H](CS)NC1=O [compound 174] (HELM PEPTIDE1{K.W.F.L.I.C.F.W.E.G}|CHEM1{[O=C(CN[*:2])[*:1]]}$PEPTIDE1,CHEM1,1:R3-1:R1|PEPTIDE1,CHEM1,9:R3-1:R2$$$V2.0)

>  <target entity>
β-catenin (Homo sapiens, UniProt P35222)

>  <β-Cat FP Hill slope>
0.7

$$$$
>  <molecule>
CC[C@H](C)[C@@H]1NC(=O)[C@H](CC(C)C)NC(=O)[C@H](Cc2ccccc2)NC(=O)[C@H](Cc2c[nH]c3ccccc23)NC(=O)[C@@H](N)CCCCNC(=O)CCCNC(=O)C[C@@H](C(=O)O)NC(=O)[C@H](Cc2c[nH]c3ccccc23)NC(=O)[C@H](C)NC(=O)[C@H](CS)NC1=O [compound 247] (HELM PEPTIDE1{K.W.F.L.I.C.A.W.[O=C(O)[C@H](CC(=O)[*:2])N[*:1]].[O=C(CCCN[*:1])[*:2]]}$PEPTIDE1,PEPTIDE1,1:R3-10:R2$$$V2.0)

>  <target entity>
β-catenin (Homo sapiens, UniProt P35222)

>  <β-Cat FP Hill slope>
2.34

$$$$
>  <molecule>
CC[C@H](C)[C@H](NC(=O)[C@H](CC(C)C)NC(=O)[C@H](Cc1ccccc1)NC(=O)[C@H](C)NC(=O)[C@@H](N)CCSC)C(=O)N[C@@H](CO)C(=O)N[C@@H](Cc1ccccc1)C(=O)N[C@@H](Cc1c[nH]c2ccccc12)C(=O)NCC(=O)O [compound 210] (H-MAFLISFWG-OH)

>  <target entity>
β-catenin (Homo sapiens, UniProt P35222)

>  <β-Cat FP Hill slope>
0.6

$$$$

**Query** Which measured β-Cat FP Hill slope value corresponds to CC[C@H](C)[C@H](NC(=O)[C@H](CC(C)C)NC(=O)[C@H](Cc1ccccc1)NC(=O)[C@H](Cc1c[nH]c2ccccc12)NC(=O)[C@@H](N)CCSC)C(=O)N[C@@H](CSC)C(=O)N[C@@H](Cc1ccccc1)C(=O)N[C@@H](Cc1c[nH]c2ccccc12)C(=O)NCC(=O)O [compound 214] (H-MWFLIC(Me)FWG-OH) ?
**Result** 0.7

* * *

target entity: Wnt-responsive promoter (TCF/LEF)
measurement notes: Wnt-dependent luciferase reporter assay
Assay type: cell-based, murine
Procedure: The luciferase reporter assay is commonly used as a tool to study gene expression at the transcriptional level. […] Luminescence was recorded to determine the peptides with the highest β-catenin-inhibiting activity. EC50 values were calculated based on the inhibition of luminescence and expressed as concentration (uM) in Table 5. Peptides were assessed for their ability to inhibit Wnt signaling. […]
pEC50: −log10 of the molar value. Where a SMILES comes first, the peptide text is derived from it.
Measured pEC50, listed per entry.

These recorded examples may help you get a feel for the data.
>  <compound>
CC[C@H](C)[C@H](NC(=O)[C@H](CC(C)C)NC(=O)[C@@H](NC(=O)[C@H](Cc1c[nH]c2ccccc12)NC(=O)[C@H](CCSC)NC(C)=O)[C@@H](C)CC)C(=O)N[C@@H](CO)C(=O)N[C@@H](Cc1ccccc1)C(=O)N[C@@H](Cc1c[nH]c2ccccc12)C(=O)NCC(=O)O [compound 165] (Ac-MWILISFWG-OH)

>  <pEC50>
> 5.12

$$$$
>  <compound>
CC[C@H](C)[C@H](NC(=O)[C@H](CC(C)C)NC(=O)[C@H](Cc1ccccc1)NC(=O)[C@H](Cc1c[nH]c2ccccc12)NC(=O)[C@@H](N)CCSC)C(=O)N[C@@H](CCC(N)=O)C(=O)N[C@@H](Cc1ccccc1)C(=O)N[C@@H](Cc1ccc(O)cc1)C(=O)NCC(=O)O [compound 149] (H-MWFLIQFYG-OH)

>  <pEC50>
4.82 to 5.12

$$$$
>  <compound>
CC[C@H](C)[C@H](NC(=O)[C@H](CC(C)C)NC(=O)[C@H](Cc1ccccc1)NC(=O)[C@H](Cc1c[nH]c2ccccc12)NC(=O)[C@H](CCSC)NC(=O)[C@H](CCCNC(=N)N)NC(=O)[C@H](CO)NC(=O)[C@@H](N)CCSC)C(=O)N[C@@H](CO)C(=O)N[C@@H](Cc1ccccc1)C(=O)N[C@@H](CCCNC(=N)N)C(=O)NCC(=O)O [compound 69] (H-MSRMWFLISFRG-OH)

>  <pEC50>
< 4.52

$$$$
>  <compound>
CC[C@H](C)[C@H](NC(=O)[C@H](CC(C)C)NC(=O)[C@@H](NC(=O)[C@H](Cc1c[nH]c2ccccc12)NC(=O)[C@@H](N)CCCCN)[C@@H](C)CC)C(=O)N[C@@H](CO)C(=O)N[C@@H](Cc1ccccc1)C(=O)N[C@@H](Cc1c[nH]c2ccccc12)C(=O)NCC(=O)O [compound 125] (H-KWILISFWG-OH)

>  <pEC50>
4.52 to 4.65

$$$$
>  <compound>
CC[C@H](C)[C@H]1NC(=O)[C@H](CC(C)C)NC(=O)[C@@H](Cc2ccccc2)NC(=O)[C@H](Cc2c[nH]c3ccccc23)NC(=O)[C@@H](CCSC)NC(=O)CCCCCCCCCCCNC(=O)C[C@@H](C(=O)O)NC(=O)[C@H](Cc2c[nH]c3ccccc23)NC(=O)[C@@H](C)NC(=O)[C@@H](CS)NC1=O [compound 193] (HELM PEPTIDE1{[O=C(CCCCCCCCCCCN[*:1])[*:2]].[dM].W.[dF].L.[CC[C@H](C)[C@@H](N[*:1])C(=O)[*:2]].[dC].[dA].W.D}$PEPTIDE1,PEPTIDE1,1:R1-10:R3$$$V2.0)

>  <pEC50>
> 5.12

$$$$
>  <compound>
CC[C@H](C)[C@H](NC(=O)[C@H](CC(C)C)NC(=O)[C@H](Cc1ccccc1)NC(=O)[C@H](Cc1c[nH]c2ccccc12)NC(=O)[C@H](CCSC)NC(=O)[C@H](CCCNC(=N)N)NC(=O)[C@H](CO)NC(=O)[C@@H](N)Cc1ccccc1)C(=O)N[C@@H](CO)C(=O)N[C@@H](Cc1ccccc1)C(=O)N[C@@H](Cc1c[nH]c2ccccc12)C(N)=O [compound 81] (H-FSRMWFLISFW-NH2)

>  <pEC50>
< 4.52

$$$$

Read the next record carefully.
**Query** Which measured pEC50 value corresponds to CC[C@H](C)[C@H](NC(=O)[C@H](CC(C)C)NC(=O)[C@H](Cc1ccccc1)NC(=O)[C@H](Cc1c[nH]c2ccccc12)NC(=O)[C@H](CCSC)NC(=O)[C@H](CCCNC(=N)N)NC(=O)[C@H](CO)NC(=O)[C@@H](N)CCSC)C(=O)N[C@@H](CO)C(=O)N[C@@H](Cc1ccccc1)C(=O)N[C@@H](Cc1c[nH]c2ccccc12)C(N)=O [compound 72] (H-MSRMWFLISFW-NH2) ?
**Result** < 4.52
